Attribution: ChEMBL document CHEMBL1139760

# TARGET DESC: UniProt:P28222
# Sequence (P28222 whole entry): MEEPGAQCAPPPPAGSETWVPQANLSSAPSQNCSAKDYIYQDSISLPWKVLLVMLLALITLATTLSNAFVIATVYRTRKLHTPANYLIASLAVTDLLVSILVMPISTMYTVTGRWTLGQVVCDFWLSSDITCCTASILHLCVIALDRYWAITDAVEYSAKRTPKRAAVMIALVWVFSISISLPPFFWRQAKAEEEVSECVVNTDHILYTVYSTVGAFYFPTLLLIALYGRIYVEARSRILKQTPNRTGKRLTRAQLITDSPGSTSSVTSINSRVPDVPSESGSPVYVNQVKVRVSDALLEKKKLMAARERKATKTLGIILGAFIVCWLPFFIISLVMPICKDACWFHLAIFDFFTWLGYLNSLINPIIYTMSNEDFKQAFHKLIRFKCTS
# ASSAY SUMMARY: Displacement of [3H]5-HT from human recombinant 5HT1B receptor expressed in CHO cells
REPORTED METRIC: Ki (nM)

Recorded Ki, per entry:
{"LINE NOTATION": "CCCCN1C(=O)COc2ccc(CN3CCN(CCOc4cccc5nc(C)ccc45)CC3)cc21", "TARGET DESC": "UniProt:P28222", "REPORTED METRIC": "Ki", "NUMERIC VALUE": 31.6}
{"LINE NOTATION": "Cc1ccc2c(OCCN3CCN(Cc4ccc5c(c4F)N(C)C(=O)CO5)CC3)cccc2n1", "TARGET DESC": "UniProt:P28222", "REPORTED METRIC": "Ki", "NUMERIC VALUE": 1.58}
{"LINE NOTATION": "Cc1ccc2c(OCCN3CCC(Cc4ccc5c(c4)N(C(C)C)C(=O)CO5)CC3)cccc2n1", "TARGET DESC": "UniProt:P28222", "REPORTED METRIC": "Ki", "NUMERIC VALUE": 39.8}
{"LINE NOTATION": "Cc1ccc2c(OCCN3CCN(Cc4ccc5c(c4)N(Cc4ccccc4)C(=O)CO5)CC3)cccc2n1", "TARGET DESC": "UniProt:P28222", "REPORTED METRIC": "Ki", "NUMERIC VALUE": 63.1}
{"LINE NOTATION": "Cc1ccc2c(OCCN3CCN(Cc4ccc5c(c4)N(CC(C)C)C(=O)CO5)CC3)cccc2n1", "TARGET DESC": "UniProt:P28222", "REPORTED METRIC": "Ki", "NUMERIC VALUE": 31.6}

[A] Cc1ccc2c(OCCN3CCN(Cc4ccc5c(c4)NC(=O)CO5)CC3)cccc2n1
[B] CCCN1C(=O)COc2ccc(CN3CCN(CCOc4cccc5nc(C)ccc45)CC3)cc21
[ask] Hello, I am sorting some records. Could you say if A or B has the smaller Ki value? Identify your pick by its label.
[reply] B
(B: 31.6 nM, A: 100 nM)

[A] CCN1C(=O)COc2ccc(CN3CCN(CCOc4cccc5nc(C)ccc45)CC3)cc21
[B] CCN1C(=O)COc2ccc(CN3CCN(CCOc4cccc5nc(C)ccc45)CC3)c(F)c21
[ask] Hello, I am sorting some records. Could you say if A or B has the smaller Ki value? Identify your pick by its label.
[reply] B
(B: 1.58 nM, A: 25.1 nM)

---

# ASSAY SUMMARY: Half life in rat at 1 mg/kg, iv
# Type: ADME, organism-based
# Design: dose 1 mg/kg, route intravenous
# ASSAY SETUP: in vivo
REPORTED METRIC: half-life (h)

Recorded half-life, per entry:
{"LINE NOTATION": "Cc1ccc2c(OCCN3CCN(Cc4cc(F)c5c(c4)N(C)C(=O)CO5)CC3)cccc2n1", "REPORTED METRIC": "half-life", "SCALE UNIT": "h", "NUMERIC VALUE": 1.3}
{"LINE NOTATION": "Cc1ccc2c(OCCN3CCN(Cc4ccc5c(c4F)N(C)C(=O)CO5)CC3)cccc2n1", "REPORTED METRIC": "half-life", "SCALE UNIT": "h", "NUMERIC VALUE": 2}
{"LINE NOTATION": "Cc1ccc2c(OCCN3CCC(Cc4ccc5c(c4)N(C)C(=O)CO5)CC3)cccc2n1", "REPORTED METRIC": "half-life", "SCALE UNIT": "h", "NUMERIC VALUE": 1.3}
{"LINE NOTATION": "CCN1C(=O)COc2ccc(CC3CCN(CCOc4cccc5nc(C)ccc45)CC3)cc21", "REPORTED METRIC": "half-life", "SCALE UNIT": "h", "NUMERIC VALUE": 1.6}

[1] Cc1ccc2c(OCCN3CCC(Cc4ccc5c(c4)NC(=O)CO5)CC3)cccc2n1
[2] CCN1C(=O)COc2ccc(CN3CCN(CCOc4cccc5nc(C)ccc45)CC3)c(F)c21
[ask] Hello, I am sorting some records. Could you say if 1 or 2 has the smaller half-life value? Identify your pick by its label.
[reply] 1
